Protocol Summary: Cmax in cynomolgous monkey at 10 mg/kg by LC-MS/MS analysis
Assay type: ADME, organism-based, Macaca fascicularis
Design: dose 10 mg/kg
Protocol Conditions: cynomolgus monkey, in vivo

[
  {
    "Smiles Repr": "CC(=O)N[C@@H](CC(C)C)C(=O)N[C@H](C(=O)N[C@@H](Cc1ccccc1)C(=O)N[C@]1(C)CCCCCC/C=C/CCC[C@@](C)(C(=O)N[C@@H](C)C(=O)N[C@@H](C)C(=O)N[C@@H](C)C(=O)N[C@@H](C)C(=O)N[C@@H](C)C(=O)N[C@H](C)C(N)=O)NC(=O)[C@H](CC(C)C)NC(=O)[C@H](CCC(N)=O)NC(=O)[C@H](C)NC(=O)[C@H](Cc2c[nH]c3ccccc23)NC(=O)[C@H](Cc2ccc(O)cc2)NC(=O)[C@H](CCC(=O)O)NC1=O)[C@@H](C)O",
    "Unit Spec": "µg/mL",
    "Cmax": 236
  }
]

Entry source: ChEMBL document CHEMBL5346962
